# Test system: human ovarian cancer OVCAR-3 cells subcutaneous xenograft tumor
# Protocol summary: In vivo efficacy study, OVCAR-3 subcutaneous xenograft tumor BALB/c nude mouse model
# Assay conditions: Day 14; 10 mg/kg from day 0 to day 14
Parameter measured: Tumor volume (Day 14) (mm^3)
Express it in mm^3; write the number only.

// recorded Tumor volume (Day 14) for CC(Nc1nc(C(F)F)cc2cnc(NC3CCN(S(C)(=O)=O)CC3)nc12)C(F)(F)F (centres unmarked) : 393

The molecule "C[C@@H]1CCCN1c1nc(C(F)F)cc2cnc(NC3CCN(S(C)(=O)=O)CC3)nc12" showed Tumor volume (Day 14) equal to 371

Recorded result, "Cc1cn(C)nc1Nc1nc(C(F)F)cc2cnc(NC3CCN(S(C)(=O)=O)CC3)nc12" , Tumor volume (Day 14): 375

So, "Cn1cc(Cl)c(Nc2nc(C(F)F)cc3cnc(NC4CCN(S(C)(=O)=O)CC4)nc23)n1" ? Its Tumor volume (Day 14) was 338

Measured Tumor volume (Day 14) of CS(=O)(=O)N1CCC(Nc2ncc3cc(C(F)F)nc(N[C@@H]4CCCC4(F)F)c3n2)CC1 (single isomer, unassigned) : 319
